Listed compounds paired with reported Bliss excess
System: CADO-ES1 (Ewing's Sarcoma);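 further: after 72 h of two-drug dosing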
Test: Bliss excess, mean over the matrix (fraction); higher = more synergy
Respond with the number and no other words.

Q: Entry COc1cccc(OCCCN)c1-c1cc(Nc2cnc(C#N)cn2)n[nH]1 [Prexasertib] + O=C(c1cc(Cc2n[nH]c(=O)c3ccccc23)ccc1F)N1CCN(C(=O)C2CC2)CC1 [Olaparib] (first compound max 1 µM, 7x7, partner max 10 µM) has what Bliss excess?
A: -0.0315

Q: What does the record list as Bliss excess for C=CCn1c(=O)c2cnc(Nc3ccc(N4CCN(C)CC4)cc3)nc2n1-c1cccc(C(C)(C)O)n1 [AZD1775] + O=C(c1cc(Cc2n[nH]c(=O)c3ccccc23)ccc1F)N1CCN(C(=O)C2CC2)CC1 [Olaparib] (first compound max 1 µM, partner max 10 µM) ?
A: 0.0402
